test system: OXA-232 producing Klebsiella pneumoniae; assay: Broth-microdilution MIC (CLSI M07-A11) against clinical isolates; format: cell-based; details: Klebsiella pneumoniae, 12 strains; MIC = ceftobiprole concentration (groups A2, B2, C2, D2, E2: inhibitor alone)

| COMPOUND | TEST_TARGET | MIC50 |
| --- | --- | --- |
| NCCN[C@H]1CC[C@H](CC(=O)N[C@H]2Cc3cccc(C(=O)O)c3OB2O)CC1 [Group D2] | OXA-232 producing Klebsiella pneumoniae | > 128 µg/mL |
| C[n+]1ccn(C[C@@]2(C)[C@H](C(=O)[O-])N3C(=O)C[C@H]3S2(=O)=O)n1 [Group E2] | OXA-232 producing Klebsiella pneumoniae | ≥ 128 µg/mL |
| Nc1nc(/C(=N/O)C(=O)N[C@@H]2C(=O)N3C(C(=O)O)=C(/C=C4\CCN([C@@H]5CCNC5)C4=O)CS[C@H]23)ns1 | OXA-232 producing Klebsiella pneumoniae | ≥ 128 µg/mL |
| O=C(NC1CCNCC1)[C@@H]1CC[C@@H]2CN1C(=O)N2OS(=O)(=O)O | OXA-232 producing Klebsiella pneumoniae | > 128 µg/mL |
| O=C(NNC(=O)[C@@H]1CC[C@@H]2CN1C(=O)N2OS(=O)(=O)O)[C@@H]1CCCNC1 | OXA-232 producing Klebsiella pneumoniae | 64 µg/mL |
